- measurement_protocol: Pharmacokinetics of octreotide after subcutaneous injection (plasma radioimmunoassay)
- condition_label: both, human, plasma, sc, 50 ug, plasma half-life, overall, 50 μg s.c.; six patients; mean ± SD
property: half-life
Report as: number unit

Qu. Quick one: half-life for C[C@@H](O)[C@@H]1NC(=O)[C@H](CCCCN)NC(=O)[C@@H](Cc2c[nH]c3ccccc23)NC(=O)[C@H](Cc2ccccc2)NC(=O)[C@@H](NC(=O)[C@H](N)Cc2ccccc2)CSSC[C@@H](C(=O)N[C@H](CO)[C@@H](C)O)NC1=O [octreotide] ?
Ans. 3.44 h

====

- measurement_protocol: Pharmacokinetics of octreotide after subcutaneous injection (plasma radioimmunoassay);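 further: cirrhotic patients on twice-daily subcutaneous dosing for prevention of recurrent variceal bleeding, sampled four weeks into treatment, octreotide measured in plasma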
- condition_label: human, plasma, sc, 50 ug, AUC, Patient 1, Child's grade A; 50 μg s.c.; AUC 2-12 h
property: AUC (µg·h/mL)
Numbers only, in µg·h/mL.

Qu. Quick one: AUC for C[C@@H](O)[C@@H]1NC(=O)[C@H](CCCCN)NC(=O)[C@@H](Cc2c[nH]c3ccccc23)NC(=O)[C@H](Cc2ccccc2)NC(=O)[C@@H](NC(=O)[C@H](N)Cc2ccccc2)CSSC[C@@H](C(=O)N[C@H](CO)[C@@H](C)O)NC1=O [octreotide] ?
Ans. 0.0105
